Here the recorded melting point is given for each entry.

Consider the worked cases shown below.
Compound: CCOC(=O)CCc1cn(Cc2ccc(OCc3cn4c(-c5ccccc5)cccc4n3)cc2)nc1OCC
melting point: 104 to 105 °C
--
Compound: CC(=C(Cl)Cl)c1cc(N)c(S(N)(=O)=O)cc1S(N)(=O)=O
melting point: 199 to 202 °C
--
Compound: CC1c2cccc3c2N(CC3)c2ccccc2N1C(=O)CCN1CCN(c2ccccc2)CC1 (stereo unspecified)
melting point: 139 to 141 °C
--
Compound: N#CC1c2ccccc2C(Nc2ccc(Cl)cc2)=NN1C(=O)c1ccccc1 (stereo unspecified)
melting point: 201 to 202 °C

Attention now turns to another entry.
Ask | Return reported melting point. Input compound: O=C(O)C1(C(=O)O)CCC(c2c(-c3ccccc3)[nH]c3ccccc23)CC1
Reply | 196 to 197 °C
